Tested on: Trypanosoma brucei
ASSAY METHOD TEXT: Trypanosoma brucei 72 hour study
Assay type: functional, organism-based
Parameters: scale not given: in the data most compounds retested in dose-response had high values
PROTOCOL CONDITIONS: 30 µM; 30.03 µM
Hit rate of the full screen: of about 66,000 compounds, about 960 (1.5%) showed an effect of 50% or more. The sample holds strong results, similar compounds and a random draw of the others, so the mix is not that of the screen.
# reported Percent Effect; entries follow
Number only, in %; omit the unit.

Some molecules with known Percent Effect results, for comparison:
Clc1ccccc1C1(c2ccnc(-c3ncccn3)n2)CCNCC1 ... 30.19
CC(C)c1nccc(C2(c3ccccc3Cl)CCNCC2)n1 ... -6.514
O=C(N1CCOCC1)[C@@]12CCO[C@@H]1CCN(C1CCCCC1)C2.O=C(O)C(F)(F)F ... -10.39
Clc1ccccc1C1(c2ccnc(CC3CC3)n2)CCNCC1 ... 25.18
Cc1ccccc1N1CCN(c2nc(N(C)C)nc3c2CCNC3)CC1 ... -31.91
N#Cc1ccc(CNC(=O)C2=NN(c3ccccc3)C(=O)CN2)cc1 ... -22.79

Retrieve Percent Effect measured for "CN(CCCn1cnc2c(N)ncnc21)Cc1ccccc1" and print it.
-6.688

Retrieve Percent Effect measured for CN1CC(=O)N(c2ccsc2)CC12CCN(C(=O)c1cccn1C)C2.O=C(O)C(F)(F)F (configuration not stated) and print it.
-33.31

Retrieve Percent Effect measured for "O=C(NCc1cccnc1)C1=NN(c2ccccc2)C(=O)CN1" and print it.
71.31
